Values compiled from ChEMBL document CHEMBL5661979.

biological target: Serine/threonine-protein kinase 10 (Homo sapiens, UniProt O94804); test: Inhibition of LOK in human HeLa cells lysate pre incubated for 15 mins followed by ATP acyl phosphate probe addition and measured after 10 mins by LC-MS/MS analysis; type: subcellular
Sequence (O94804 whole entry): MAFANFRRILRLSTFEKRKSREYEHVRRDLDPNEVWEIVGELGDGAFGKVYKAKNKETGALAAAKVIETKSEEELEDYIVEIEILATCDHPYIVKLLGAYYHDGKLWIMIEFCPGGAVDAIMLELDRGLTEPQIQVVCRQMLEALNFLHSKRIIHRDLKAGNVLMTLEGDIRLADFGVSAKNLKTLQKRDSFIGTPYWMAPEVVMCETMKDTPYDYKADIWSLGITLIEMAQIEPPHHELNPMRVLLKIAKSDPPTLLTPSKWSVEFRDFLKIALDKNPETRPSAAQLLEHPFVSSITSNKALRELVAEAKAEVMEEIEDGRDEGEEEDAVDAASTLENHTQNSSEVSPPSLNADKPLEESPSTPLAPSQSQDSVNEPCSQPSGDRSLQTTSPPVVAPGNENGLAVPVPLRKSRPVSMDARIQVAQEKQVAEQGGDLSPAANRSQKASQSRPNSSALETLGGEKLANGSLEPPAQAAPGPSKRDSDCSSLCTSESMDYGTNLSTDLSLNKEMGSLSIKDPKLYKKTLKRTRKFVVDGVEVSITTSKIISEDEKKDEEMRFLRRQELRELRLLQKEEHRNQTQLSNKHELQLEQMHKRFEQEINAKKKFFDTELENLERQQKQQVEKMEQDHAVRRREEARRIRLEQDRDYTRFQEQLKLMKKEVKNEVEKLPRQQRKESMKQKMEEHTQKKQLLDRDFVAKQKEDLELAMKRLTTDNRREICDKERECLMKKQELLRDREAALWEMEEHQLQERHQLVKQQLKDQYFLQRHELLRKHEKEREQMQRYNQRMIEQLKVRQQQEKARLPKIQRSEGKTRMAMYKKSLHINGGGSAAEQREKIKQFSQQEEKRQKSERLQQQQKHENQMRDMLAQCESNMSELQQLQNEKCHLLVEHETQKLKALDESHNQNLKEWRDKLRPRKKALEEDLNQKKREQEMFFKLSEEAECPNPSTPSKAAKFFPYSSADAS
pIC50: −log10 of the molar value.
MEASURED PARAMETER: pIC50

# input Can you share its pIC50? I mean this compound: CCOc1cc(N2CCC(O)CC2)ccc1Nc1ncc2c(n1)N(C)c1ccccc1C(=O)N2C
# output < 4.30

###

target: UniProtKB P24941; experiment: Inhibition of CDK2 K2 site in human HeLa cells lysate pre incubated for 15 mins followed by ADP acyl phosphate probe addition and measured after 10 mins by LC-MS/MS analysis; type: subcellular
MEASURED PARAMETER: IC50

# input Can you share its IC50? I mean this compound: CCOc1cc(N2CCC(O)CC2)ccc1Nc1ncc2c(n1)N(C)c1ccccc1C(=O)N2C
# output > 50 µM

###

molecular target: DNA-dependent protein kinase catalytic subunit (Homo sapiens); assay: Inhibition of PRKDC in human HeLa cells lysate pre incubated for 15 mins followed by ATP acyl phosphate probe addition and measured after 10 mins by LC-MS/MS analysis; type: subcellular
Sequence (P78527 whole entry): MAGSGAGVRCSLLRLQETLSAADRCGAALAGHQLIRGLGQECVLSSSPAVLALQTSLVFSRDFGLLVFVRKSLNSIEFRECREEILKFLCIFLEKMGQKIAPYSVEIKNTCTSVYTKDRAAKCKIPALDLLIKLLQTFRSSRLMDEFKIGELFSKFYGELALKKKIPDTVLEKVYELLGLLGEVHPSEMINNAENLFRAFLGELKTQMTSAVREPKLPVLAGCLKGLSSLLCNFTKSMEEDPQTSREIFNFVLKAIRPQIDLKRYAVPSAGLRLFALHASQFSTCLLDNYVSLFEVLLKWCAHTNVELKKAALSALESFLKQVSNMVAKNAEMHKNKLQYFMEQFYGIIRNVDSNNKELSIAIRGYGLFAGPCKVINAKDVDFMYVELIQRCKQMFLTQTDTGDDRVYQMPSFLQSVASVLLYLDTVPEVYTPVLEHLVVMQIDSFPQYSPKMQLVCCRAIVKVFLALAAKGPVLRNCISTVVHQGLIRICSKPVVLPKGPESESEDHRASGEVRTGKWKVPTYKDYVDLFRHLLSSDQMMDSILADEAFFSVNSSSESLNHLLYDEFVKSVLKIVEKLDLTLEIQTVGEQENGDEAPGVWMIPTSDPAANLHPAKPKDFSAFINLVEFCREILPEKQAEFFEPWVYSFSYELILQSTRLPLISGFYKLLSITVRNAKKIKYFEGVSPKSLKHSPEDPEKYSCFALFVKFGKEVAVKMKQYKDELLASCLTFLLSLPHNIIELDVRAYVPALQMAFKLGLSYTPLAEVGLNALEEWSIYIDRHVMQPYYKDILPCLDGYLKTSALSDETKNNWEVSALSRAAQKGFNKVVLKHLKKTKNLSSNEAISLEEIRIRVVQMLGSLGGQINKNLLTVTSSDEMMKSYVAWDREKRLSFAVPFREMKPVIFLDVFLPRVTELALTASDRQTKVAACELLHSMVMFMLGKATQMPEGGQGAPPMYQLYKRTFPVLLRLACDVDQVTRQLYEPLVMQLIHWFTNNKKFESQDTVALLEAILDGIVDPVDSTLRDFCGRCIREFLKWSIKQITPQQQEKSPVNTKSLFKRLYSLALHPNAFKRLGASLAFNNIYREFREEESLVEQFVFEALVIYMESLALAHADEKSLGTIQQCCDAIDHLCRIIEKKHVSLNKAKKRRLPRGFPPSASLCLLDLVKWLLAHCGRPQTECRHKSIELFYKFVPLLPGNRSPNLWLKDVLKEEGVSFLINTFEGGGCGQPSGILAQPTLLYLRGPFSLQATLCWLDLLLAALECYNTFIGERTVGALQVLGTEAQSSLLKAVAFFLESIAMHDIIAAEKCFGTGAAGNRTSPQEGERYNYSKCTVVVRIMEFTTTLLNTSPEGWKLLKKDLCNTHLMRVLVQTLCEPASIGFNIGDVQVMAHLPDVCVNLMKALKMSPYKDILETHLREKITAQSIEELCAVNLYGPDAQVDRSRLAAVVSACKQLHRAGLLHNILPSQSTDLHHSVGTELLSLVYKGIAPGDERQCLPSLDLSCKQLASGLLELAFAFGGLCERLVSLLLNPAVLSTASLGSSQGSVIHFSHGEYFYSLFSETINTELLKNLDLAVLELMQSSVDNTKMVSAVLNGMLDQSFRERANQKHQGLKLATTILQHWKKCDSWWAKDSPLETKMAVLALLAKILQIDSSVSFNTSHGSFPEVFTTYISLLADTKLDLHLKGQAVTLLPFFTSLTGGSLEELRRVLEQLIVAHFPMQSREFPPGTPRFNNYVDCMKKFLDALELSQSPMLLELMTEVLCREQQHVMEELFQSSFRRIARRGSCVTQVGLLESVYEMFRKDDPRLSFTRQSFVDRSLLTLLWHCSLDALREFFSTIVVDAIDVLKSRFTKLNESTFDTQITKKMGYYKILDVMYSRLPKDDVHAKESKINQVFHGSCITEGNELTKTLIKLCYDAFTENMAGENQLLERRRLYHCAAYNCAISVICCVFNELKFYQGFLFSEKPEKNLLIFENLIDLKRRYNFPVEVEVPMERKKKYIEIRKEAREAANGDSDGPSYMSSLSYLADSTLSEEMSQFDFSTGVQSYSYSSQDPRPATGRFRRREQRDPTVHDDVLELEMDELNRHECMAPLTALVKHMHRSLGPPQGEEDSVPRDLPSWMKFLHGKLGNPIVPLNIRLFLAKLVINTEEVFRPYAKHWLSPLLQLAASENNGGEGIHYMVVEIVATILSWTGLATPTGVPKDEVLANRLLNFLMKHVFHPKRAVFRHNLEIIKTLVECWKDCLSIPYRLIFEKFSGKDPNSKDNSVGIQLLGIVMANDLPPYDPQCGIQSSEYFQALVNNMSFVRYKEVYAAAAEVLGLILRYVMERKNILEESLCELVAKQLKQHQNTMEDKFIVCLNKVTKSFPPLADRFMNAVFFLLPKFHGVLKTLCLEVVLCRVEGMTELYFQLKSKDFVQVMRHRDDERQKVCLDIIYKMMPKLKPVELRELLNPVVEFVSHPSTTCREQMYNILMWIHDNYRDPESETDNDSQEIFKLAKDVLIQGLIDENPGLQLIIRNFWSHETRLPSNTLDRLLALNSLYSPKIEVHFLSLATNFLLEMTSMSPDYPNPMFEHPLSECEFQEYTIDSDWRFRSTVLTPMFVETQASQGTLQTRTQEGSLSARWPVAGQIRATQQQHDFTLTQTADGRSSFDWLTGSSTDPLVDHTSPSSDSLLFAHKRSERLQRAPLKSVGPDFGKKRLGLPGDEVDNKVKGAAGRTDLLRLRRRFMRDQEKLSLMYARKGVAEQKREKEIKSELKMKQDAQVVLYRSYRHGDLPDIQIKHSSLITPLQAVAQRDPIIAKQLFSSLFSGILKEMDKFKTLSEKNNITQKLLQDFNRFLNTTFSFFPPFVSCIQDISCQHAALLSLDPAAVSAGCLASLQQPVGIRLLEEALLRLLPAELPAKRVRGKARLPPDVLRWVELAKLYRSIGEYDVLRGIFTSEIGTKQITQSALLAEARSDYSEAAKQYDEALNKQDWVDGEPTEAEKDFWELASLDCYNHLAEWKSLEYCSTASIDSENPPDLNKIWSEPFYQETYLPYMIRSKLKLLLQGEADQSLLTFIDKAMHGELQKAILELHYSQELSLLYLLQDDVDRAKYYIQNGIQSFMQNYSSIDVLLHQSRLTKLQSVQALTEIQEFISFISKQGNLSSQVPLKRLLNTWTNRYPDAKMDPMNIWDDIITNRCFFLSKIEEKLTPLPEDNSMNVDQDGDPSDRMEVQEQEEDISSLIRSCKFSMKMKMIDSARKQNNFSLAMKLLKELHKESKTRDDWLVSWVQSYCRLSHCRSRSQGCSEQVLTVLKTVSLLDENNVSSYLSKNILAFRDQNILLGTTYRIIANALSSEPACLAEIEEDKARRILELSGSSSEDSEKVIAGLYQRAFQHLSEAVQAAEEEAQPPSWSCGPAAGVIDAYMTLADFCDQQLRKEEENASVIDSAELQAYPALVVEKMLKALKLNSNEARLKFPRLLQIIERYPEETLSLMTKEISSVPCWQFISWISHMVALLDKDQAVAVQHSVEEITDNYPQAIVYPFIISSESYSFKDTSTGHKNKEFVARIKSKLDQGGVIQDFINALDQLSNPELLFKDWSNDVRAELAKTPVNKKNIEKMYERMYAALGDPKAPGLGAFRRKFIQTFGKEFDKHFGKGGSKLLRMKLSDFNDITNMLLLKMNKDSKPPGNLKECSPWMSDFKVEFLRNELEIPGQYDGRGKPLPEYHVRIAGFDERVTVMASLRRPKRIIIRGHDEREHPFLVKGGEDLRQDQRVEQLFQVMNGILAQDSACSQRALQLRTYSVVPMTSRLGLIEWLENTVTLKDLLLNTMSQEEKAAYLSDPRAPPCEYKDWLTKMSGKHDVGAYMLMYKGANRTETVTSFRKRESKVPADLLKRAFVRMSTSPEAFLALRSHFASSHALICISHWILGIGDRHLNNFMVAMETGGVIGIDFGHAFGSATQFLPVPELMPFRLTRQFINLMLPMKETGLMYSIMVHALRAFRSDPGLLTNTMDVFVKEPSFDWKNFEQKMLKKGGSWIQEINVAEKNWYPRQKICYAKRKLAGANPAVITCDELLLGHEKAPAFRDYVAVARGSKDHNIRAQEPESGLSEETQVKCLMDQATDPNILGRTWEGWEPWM
MEASURED PARAMETER: IC50

# input Can you share its IC50? I mean this compound: CCOc1cc(N2CCC(O)CC2)ccc1Nc1ncc2c(n1)N(C)c1ccccc1C(=O)N2C
# output > 50 µM

###

target: Mitogen-activated protein kinase 1 (Homo sapiens); assay: Inhibition of ERK2 in human HeLa cells lysate pre incubated for 15 mins followed by ATP acyl phosphate probe addition and measured after 10 mins by LC-MS/MS analysis
MEASURED PARAMETER: IC50

# input For the record CCOc1cc(N2CCC(O)CC2)ccc1Nc1ncc2c(n1)N(C)c1ccccc1C(=O)N2C , what value of IC50 is listed for Mitogen-activated protein kinase 1 (Homo sapiens)?
# output > 50 µM

###

experiment: Half life in Sprague-Dawley rat at 1 mg/kg, iv measured up to 8 hrs by LC-MS/MS analysis; type: ADME, organism-based; conditions: in vivo
MEASURED PARAMETER: half-life (h)
Response body: numeric value in h, unit text excluded.

# input Can you share its half-life? I mean this molecule: CCOc1cc(N2CCC(O)CC2)ccc1Nc1ncc2c(n1)N(C)c1ccccc1C(=O)N2C
# output 2

###

target: 1-phosphatidylinositol 3-phosphate 5-kinase (Homo sapiens, UniProt Q9Y2I7); assay: Inhibition of PIP5K3 in human HeLa cells lysate pre incubated for 15 mins followed by ATP acyl phosphate probe addition and measured after 10 mins by LC-MS/MS analysis
MEASURED PARAMETER: IC50

# input For the record CCOc1cc(N2CCC(O)CC2)ccc1Nc1ncc2c(n1)N(C)c1ccccc1C(=O)N2C , what value of IC50 is listed for 1-phosphatidylinositol 3-phosphate 5-kinase (Homo sapiens, UniProt Q9Y2I7)?
# output > 50 µM

###

molecular target: Serine/threonine-protein kinase tousled-like 2 (Homo sapiens); experiment: Inhibition of TLK2 in human HeLa cells lysate pre incubated for 15 mins followed by ADP acyl phosphate probe addition and measured after 10 mins by LC-MS/MS analysis
MEASURED PARAMETER: IC50

# input Can you share its IC50? I mean this molecule: CCOc1cc(N2CCC(O)CC2)ccc1Nc1ncc2c(n1)N(C)c1ccccc1C(=O)N2C
# output > 50 µM

###

target: Serine/threonine-protein kinase PLK1 (Homo sapiens); assay: Inhibition of PLK1 in human HeLa cells lysate pre incubated for 15 mins followed by ADP acyl phosphate probe addition and measured after 10 mins by LC-MS/MS analysis; type: subcellular
pIC50: −log10 of the molar value.
MEASURED PARAMETER: pIC50

# input Can you share its pIC50? I mean this compound: CCOc1cc(N2CCC(O)CC2)ccc1Nc1ncc2c(n1)N(C)c1ccccc1C(=O)N2C
# output < 4.30
